Values compiled from ChEMBL document CHEMBL3046138.

IC50 values recorded for Trans-cinnamate 4-monooxygenase (Populus kitakamiensis)
Express the result in nM but write the number alone.

Use these answered entries as a reference point.
Sc1nnc(-c2cccc(Br)c2)o1 : 420
S=c1[nH]nc(-c2ccccc2)o1 : 800
Cc1cccc(-c2nnc(S)o2)c1 : 1100
Fc1ccccc1-c1nnc(S)o1 : 190

Lookup: Report value: IC50, system: Trans-cinnamate 4-monooxygenase (Populus kitakamiensis), compound: O=c1[nH]nc(-c2ccccc2)o1
Sequence (Q43054 whole entry): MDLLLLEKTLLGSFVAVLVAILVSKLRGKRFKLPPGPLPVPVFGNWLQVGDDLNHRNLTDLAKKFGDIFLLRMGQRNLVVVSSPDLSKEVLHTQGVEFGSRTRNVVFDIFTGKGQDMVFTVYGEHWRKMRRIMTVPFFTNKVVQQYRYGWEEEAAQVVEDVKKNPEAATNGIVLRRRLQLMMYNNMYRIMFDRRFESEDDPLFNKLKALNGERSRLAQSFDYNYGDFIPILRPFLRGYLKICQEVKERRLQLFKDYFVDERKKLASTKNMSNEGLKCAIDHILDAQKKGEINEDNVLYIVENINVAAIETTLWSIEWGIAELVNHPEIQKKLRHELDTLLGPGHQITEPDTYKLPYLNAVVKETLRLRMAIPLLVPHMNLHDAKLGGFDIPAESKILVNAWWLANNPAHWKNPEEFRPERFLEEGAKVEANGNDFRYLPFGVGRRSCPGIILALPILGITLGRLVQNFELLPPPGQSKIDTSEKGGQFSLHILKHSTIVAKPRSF
Found: 6700

* * *

- measurement.target: Trans-cinnamate 4-monooxygenase (Helianthus tuberosus, UniProt Q04468)
- Sequence (Q04468 whole entry): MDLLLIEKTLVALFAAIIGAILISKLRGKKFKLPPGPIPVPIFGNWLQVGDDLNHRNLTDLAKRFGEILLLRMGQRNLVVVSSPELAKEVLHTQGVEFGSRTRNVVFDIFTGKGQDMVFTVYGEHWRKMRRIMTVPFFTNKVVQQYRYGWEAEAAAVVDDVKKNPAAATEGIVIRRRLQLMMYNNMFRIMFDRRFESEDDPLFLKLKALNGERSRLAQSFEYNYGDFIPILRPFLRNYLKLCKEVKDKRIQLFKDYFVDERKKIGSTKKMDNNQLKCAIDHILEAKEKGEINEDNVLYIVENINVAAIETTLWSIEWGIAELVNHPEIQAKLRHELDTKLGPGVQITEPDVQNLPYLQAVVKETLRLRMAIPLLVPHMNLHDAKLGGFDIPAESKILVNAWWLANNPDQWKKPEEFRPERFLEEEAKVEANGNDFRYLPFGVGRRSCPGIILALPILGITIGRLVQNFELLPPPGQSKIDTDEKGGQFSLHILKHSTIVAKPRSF
quantity.measured: pIC50
# log scale: pIC50 equals minus log10 of the concentration in mol/L

Lookup: Fill in pIC50 for O=C(O)c1c(O)ccc2ccccc12 tested with Trans-cinnamate 4-monooxygenase (Helianthus tuberosus, UniProt Q04468).
Found: 6.05
